test: Metabolic stability in human liver microsomes assessed as metabolic rate at 1 uM preincubated for 5 mins followed by NADPH addition and measured up to 30 mins by LC/MS-MS analysis; assay type: ADME, Microsome; details: 0.5 h
parameter: Drug metabolism (nmol/min/mg)

[1] O=S(=O)(Nc1nccs1)c1ccc2c(c1)OCC[C@@H]2c1ccc(C(F)(F)F)cc1-c1ccc(F)nc1
[2] O=S(=O)(Nc1ncccn1)c1ccc2c(c1)OCC[C@@H]2c1ccc(C(F)(F)F)cc1N1CCOCC1
Lookup: Returns: the label, 1 or 2 , whose recorded Drug metabolism is the lower number. // output: label of the selected item
Found: 2

[a] O=S(=O)(Nc1ncccn1)c1ccc2c(c1)OCC[C@@H]2c1ccc(C(F)(F)F)cc1-c1ccc(F)nc1
[b] Cn1nccc1-c1cc(C(F)(F)F)ccc1[C@H]1CCOc2cc(S(=O)(=O)Nc3nccs3)ccc21
Lookup: // which entry has the larger Drug metabolism value, a or b ? Answer by quoting the chosen item's label.
Found: b
(b: 0.05 nmol/min/mg, a: 0 nmol/min/mg)
